# Test system: A549 lung cancer cells
# Assay procedure: MTT cell viability assay, A549
# Assay type: cell-based, human
# Details: 48 h, mean of three independent experiments (N = 9)
Lab note: cut-off is 40 µM. Strictly less in IC50 is Yes. Exactly 40 µM or more is No.

CCCCCCCCCCCCCCCCCC[n+]1ccc(C(=O)NN=Cc2ccc[n+](CCCCCCCCCCCCCCCCCC)c2)cc1 [Compound 36]
No
CCCCCCCCCCCCCCCCCC[n+]1ccc(C(=O)NN=Cc2ccc[n+](CCCCCCCCCCCCCCCCCC)c2)cc1 [Compound 35]
No
CCCCCCCCCC[n+]1ccc(C(=O)NN=Cc2ccc[n+](CCCCCCCCCC)c2)cc1.[I-].[I-]
Yes
CCCCCCCCCCCCCCCC[n+]1ccc(C(=O)NN=Cc2ccc[n+](CCCCCCCCCCCCCCCC)c2)cc1 [Compound 14]
Yes
N.N.[Cl][Pt][Cl] [Cisplatin, cisplatin, reference compound]
Yes

Consider the compound CCCCCCCC[n+]1ccc(C(=O)NN=Cc2ccc[n+](CCCCCCCC)c2)cc1.[I-].[I-] . Is its IC50 strictly less than 40 µM?
No

Consider the compound CCCCCCCCCCCCCC[n+]1ccc(C(=O)NN=Cc2ccc[n+](CCCCCCCCCCCCCC)c2)cc1 [Compound 30] . Is its IC50 strictly less than 40 µM?
Yes

====

Some compounds, each annotated with its measured pIC50.
# Tested on: A549 lung cancer cells
# Assay procedure: MTT cell viability assay, A549
# Type: cell-based, human
# Details: Homo sapiens, A549, 48 h, mean of three independent experiments (N = 9)
pIC50 field: float, defined as -log10 of concentration (mol/L).

These recorded examples may help you get a feel for the data.
CCCCCCCCCC[n+]1ccc(C(=O)N/N=C/c2ccc[n+](CCCCCCCCCC)c2)cc1
4.63
CCCCCCCCCCCC[n+]1ccc(C(=O)N/N=C/c2ccc[n+](CCCCCCCCCCCC)c2)cc1
4.36
CCCCCCCCCCCC[n+]1ccc(C(=O)NN=Cc2ccc[n+](CCCCCCCCCCCC)c2)cc1
4.84
CCCCCCCCCC[n+]1ccc(C(=O)NN=Cc2ccc[n+](CCCCCCCCCC)c2)cc1.F[B-](F)(F)F.F[B-](F)(F)F
4.87
CCCCCCCC[n+]1ccc(C(=O)NN=Cc2ccc[n+](CCCCCCCC)c2)cc1
4.16
CCCCCCCCCCCCCC[n+]1ccc(C(=O)NN=Cc2ccc[n+](CCCCCCCCCCCCCC)c2)cc1
4.38

Please find the next compound below.
# CCCCCCCCC[n+]1ccc(C(=O)NN=Cc2ccc[n+](CCCCCCCCC)c2)cc1 with A549 lung cancer cells: pIC50 is 4.50

====

# Tested on: H1299 lung cancer cells
# Assay procedure: MTT cell viability assay, H1299
# Format: cell-based, human
# Details: 48 h, mean of three independent experiments (N = 9)
Measured quantity: IC50 (µM)
Could you give me the number in µM? Just the number is fine.

These recorded examples may help you get a feel for the data.
CCCCCCCCCCCCCC[n+]1ccc(C(=O)NN=Cc2ccc[n+](CCCCCCCCCCCCCC)c2)cc1 [Compound 13]
38
CCCCCCCCCCCCCCCCCC[n+]1ccc(C(=O)NN=Cc2ccc[n+](CCCCCCCCCCCCCCCCCC)c2)cc1.[I-].[I-] [Compound 15]
22.1

# CCCCCCCCC[n+]1ccc(C(=O)NN=Cc2ccc[n+](CCCCCCCCC)c2)cc1 [Compound 21] with H1299 lung cancer cells: IC50 is 28

# CCCCCCCCCC[n+]1ccc(C(=O)NN=Cc2ccc[n+](CCCCCCCCCC)c2)cc1 [Compound 24] with H1299 lung cancer cells: IC50 is 19
